Assay: chemical genetic growth profiling, strain panel (AID 1159580);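 note: tested at 20 µM; growth read once vehicle control cultures reached saturation at 30 °C; 1 = growth at the plate median or of vehicle wells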
Conditions: S. cerevisiae deletion strains, growth OD, locus YCL016C, strain dcc1, stronger effect = lower value
About 2,000 (36%) of roughly 5,500 compounds were called active. Inconclusive results (about 18%) are left out. The list shows a part of the results.
Readout type: normalized growth
Lab note: jot down the number only; don't add units.

Example compounds with recorded normalized growth:
COc1ccc2c(=O)ccoc2c1 : 1.02
CC(=O)Oc1cccc2c1C(=O)c1c(OC(C)=O)cc(C(=O)O)cc1C2=O : 0.946
CC1(C)C=Cc2cc3ccc(=O)oc3cc2O1 : 0.891
OC(c1cc(C(F)(F)F)nc2c(C(F)(F)F)cccc12)C1CCCCN1 (stereo unspecified) : 1
COc1c2occc2c(OC)c2c(=O)cc(C)oc12 : 0.986

Ask: So what does the record say about normalized growth for O=c1c(O)c(-c2ccc(O)c(O)c2)oc2cc(O)ccc12 ?
Result: 0.977

Ask: Returns the measured normalized growth for the input compound. Input: COC(=O)C[C@H]1C(C)(C)[C@@H](O)[C@@H]2CC3=C4C=C(OC)O[C@@H](c5ccoc5)[C@]4(C)CCC3[C@@]1(C)C2=O (stereo partly specified)
Result: 0.999

Ask: # input compound: COc1ccc(-c2oc3ccccc3c(=O)c2O)cc1OC ; wanted: its normalized growth
Result: 0.782

Ask: Can you look up the measured normalized growth of Cc1cc(C(C)(C)C)cc(C)c1CC1=NCCN1 for me?
Result: 0.99

Ask: Which normalized growth reading was recorded for the compound COc1cc(-c2oc3cc(O)ccc3c(=O)c2O)ccc1O ?
Result: 0.961

Ask: // returns reported normalized growth for input COc1c2ccoc2cc2oc(C)cc(=O)c12
Result: 0.979

---

Experiment: chemical genetic growth profiling, strain panel (AID 1159580);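 note: tested at 20 µM; growth read once vehicle control cultures reached saturation at 30 °C; 1 = growth at the plate median or of vehicle wells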
Conditions: S. cerevisiae deletion strains, growth OD, locus YLR102C, strain apc9
Hit rate of the full screen: of about 5,500 compounds, about 2,000 (36%) were called active. Another 18% or so got no clear call; they are omitted. Rule as the data show it: active = normalized growth mostly below about 0.91 (no sharp cut-off); inconclusive = no clear call, values can overlap the other calls; inactive = mostly above about 0.92. The list shows a part of the results.
Respond only with the outcome that fits, drawn from 1 (active), 0 (inactive)

Below are worked cases with known answers.
CN1CCN(CCC=C2c3ccccc3Sc3ccc(S(=O)(=O)N(C)C)cc32)CC1 : 0
Cc1cc(C(C)(C)C)cc(C)c1CC1=NCCN1 : 0
CC1(C)C(=O)[C@@H]2C[C@@]3(O)C4=CC(=O)O[C@@H](c5ccoc5)[C@]4(C)CCC3[C@@](C)(C2=O)[C@H]1CC(=O)O (stereo not given in full) : 0
OCCN1CCN(CCCN2c3ccccc3Sc3ccc(C(F)(F)F)cc32)CC1 : 0

Now let's try a different one.
Ask: Tell me the recorded outcome of this test for CN1CCN(CCCN2c3ccccc3Sc3ccc(C(F)(F)F)cc32)CC1 .
Result: 1

---

Test: chemical genetic growth profiling, strain panel (AID 1159580);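 note: tested at 20 µM; growth read once vehicle control cultures reached saturation at 30 °C; 1 = growth at the plate median or of vehicle wells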
Conditions: S. cerevisiae deletion strains, growth OD, locus YOR083W, strain WHI5, stronger effect = lower value
Hit rate of the full screen: of about 5,500 compounds, about 2,000 (36%) were called active. Not shown: some 18% with an inconclusive outcome. Some of the results follow.
Flag rule - normalized growth less than 1 flags 1 (yes); the remaining entries get 0 (no).

These recorded examples may help you get a feel for the data.
CC1=NN(c2ccccc2)C(=O)C1 : 1 (yes)
O=C(O)c1cc(=O)c2cccc(O)c2[nH]1 : 0 (no)
COc1c2c(cc3c1OCO3)C13C=C[C@H](OC)CC1N(C2)CC3O (stereo partly specified) : 1 (yes)
CN1CCN(CCCN2c3ccccc3Sc3ccc(C(F)(F)F)cc32)CC1 : 1 (yes)

Field: next molecule
Ask: Lab log: compare recorded normalized growth with 1; is it strictly lower for CC(=O)NO ?
Result: 1 (yes)
